- system name: D5 (Homo sapiens (Human), UniProt P21918)
- Sequence (P21918 whole entry, looked up): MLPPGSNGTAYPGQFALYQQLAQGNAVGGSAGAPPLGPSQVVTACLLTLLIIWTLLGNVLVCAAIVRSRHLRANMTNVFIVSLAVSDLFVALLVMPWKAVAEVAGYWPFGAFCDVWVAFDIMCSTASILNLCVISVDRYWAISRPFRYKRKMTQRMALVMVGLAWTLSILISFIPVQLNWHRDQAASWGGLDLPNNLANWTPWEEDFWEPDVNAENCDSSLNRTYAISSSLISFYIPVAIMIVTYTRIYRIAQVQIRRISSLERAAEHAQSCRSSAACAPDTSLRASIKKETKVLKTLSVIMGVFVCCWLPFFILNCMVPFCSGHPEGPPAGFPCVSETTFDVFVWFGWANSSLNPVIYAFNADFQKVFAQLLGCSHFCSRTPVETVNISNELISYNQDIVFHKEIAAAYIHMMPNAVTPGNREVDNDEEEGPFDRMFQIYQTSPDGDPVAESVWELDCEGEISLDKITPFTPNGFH
pKi: −log10 of the molar value.
measurement label: pKi

>>> df
                  smiles_repr  obs_value
0  CN(C)CCc1c[nH]c2cccc(O)c12     < 5.00

----------
- system name: UniProtKB P28223
- measurement notes: cell-based
- Format: cell-based
- measurement conditions: IP assay, % of Rmax of 5-HT
measurement label: 5-HT2A Rmax (%)

                                   molecule  units_text  obs_value
0  COc1cc([C@@H]2CCCNC2)c(OC)cc1I [Compound 14]           %         72
1  CCSc1cc(OC)c([C@@H]2CCCNC2)cc1OC.Cl [Compound 28]           %         62
2  CCOc1cc([C@@H]2CCCNC2)c(OC)cc1C(F)(F)F.Cl [Compound 20]           %         79
3  CCOc1cc(C(F)(F)F)c(OCC)cc1[C@@H]1CCCNC1.Cl [Compound 22]           %         54
4  COc1cc([C@@H]2CCCNC2)c(OC)cc1C.Cl [Compound 24]           %         67
5  COc1cc(C(F)(F)F)c(OC)cc1CCN [Compound 2C-TFM, reference compound]           %         78
